Origin of values: patent US20230227520A1

system tested: T1, G-CSF Receptor (G-CSFR) (R&D systems 381-GR-050/CF), recombinant human (human, UniProt Q99062 25-627, limits assumed)
T1 construct: Bought protein, amine-coupled to a CM5 chip; also called rhG-CSFR; human G-CSF receptor
T1 sequence (looked up): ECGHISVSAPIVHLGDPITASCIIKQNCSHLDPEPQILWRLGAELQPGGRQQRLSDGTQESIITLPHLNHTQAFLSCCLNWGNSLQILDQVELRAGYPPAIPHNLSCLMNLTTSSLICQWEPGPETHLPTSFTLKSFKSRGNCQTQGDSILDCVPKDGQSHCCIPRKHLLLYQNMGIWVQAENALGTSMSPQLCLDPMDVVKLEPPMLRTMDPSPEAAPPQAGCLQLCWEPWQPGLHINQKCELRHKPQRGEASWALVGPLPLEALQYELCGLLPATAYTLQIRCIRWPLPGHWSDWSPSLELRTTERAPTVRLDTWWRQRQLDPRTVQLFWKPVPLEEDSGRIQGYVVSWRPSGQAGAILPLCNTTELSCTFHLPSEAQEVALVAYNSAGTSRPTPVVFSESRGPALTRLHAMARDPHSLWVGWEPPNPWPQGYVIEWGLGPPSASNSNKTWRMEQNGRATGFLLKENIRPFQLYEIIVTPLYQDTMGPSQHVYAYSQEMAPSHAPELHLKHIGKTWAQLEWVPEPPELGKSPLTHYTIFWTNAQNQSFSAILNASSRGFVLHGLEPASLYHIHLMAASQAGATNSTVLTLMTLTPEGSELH
test details: SPR, Biacore X100 single-cycle kinetics, G-CSFR amine-coupled on CM5, 1:1 binding model
readout type: koff (s⁻¹)

[[record]]
binder = "Moevan (designed binder, also called Movean) MEAAAAARDESAYLKLQEQMRKIDADAAALSETRTIEELDTFKLDVADFVTTVVQLAEELEHRFGRNRRGRTEIYKIVKEVDRKLLDLTDAVLAKEKKGEDILNMVAEIKALLINIYK"
value_measured = 0.0059

[[record]]
binder = "rhG-CSF (recombinant human G-CSF; USP RS Filgrastim, Sigma-Aldrich 1270435) (ligand) TPLGPASSLPQSFLLKCLEQVRKIQGDGAALQEKLCATYKLCHPEELVLLGHSLGIPWAPLSSCPSQALQLAGCLSQLHSGLFLYQGLLQALEGISPELGPTLDTLQLDVADFATTIWQQMEELGMAPALQPTQGAMPAFASAFQRRAGGVLVASHLQSFLEVSYRVLRHLAQP"
value_measured = 0.00049

[[record]]
binder = "Moevan_t2 (designed binder, Tandem fusion of two Moevan copies joined by a 24 amino acid GS linker) EAAAAARDESAYLKLQEQMRKIDADAAALSETRTIEELDTFKLDVADFVTTVVQLAEELEHRFGRNRRGRTEIYKIVKEVDRKLLDLTDAVLAKEKKGEDILNMVAEIKALLINIYKGGGGSSGGGGSSGGGGSSGGGGSSEAAAAARDESAYLKLQEQMRKIDADAAALSETRTIEELDTFKLDVADFVTTVVQLAEELEHRFGRNRRGRTEIYKIVKEVDRKLLDLTDAVLAKEKKGEDILNMVAEIKALLINIYK"
value_measured = 0.0003

[[record]]
binder = "Disohair_2 (designed binder, Expressed with an N-terminal hexa-His-tag and thrombin site) MTSDYIIEQIQRKQEEARLKVEEQERKLEAVKEASKRGVSSDQLLNLILDLADIITTLIQIIEESNEAIKELIKNQ"
value_measured = 0.0095

